# system: Pro-neuregulin-1, membrane-bound isoform (Homo sapiens)
# procedure text: NRG1 binders on small-molecule microarrays, primary screen, psychiatric disease protein project, biochemical, small-molecule microarray, fluorescence 635/667 (AID 1075);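 also: score combines 667 nm spot fluorescence with signal to noise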
# measurement setup: NRG1 binding, 635 nm fluorescence, higher = more signal
Short version: composite z-score at least -0.002 is T, less is F.

Use the examples below as a reference point.
input_smiles=CO[C@H]1COC(=O)[C@H](C)NC(=O)CC=C[C@@H](C)[C@H](OC)COC(=O)[C@@H](OCc2ccccc2)C=C[C@@H]1C assigned_category=F
input_smiles=COc1ccc(COC(=O)NN=C2C[C@@H](O)[C@@H](O)[C@@H]3[C@@H]4C(=O)N(C5CCCCC5)C(=O)[C@@H]4CC[C@H]23)cc1 assigned_category=F
input_smiles=CC[C@@H](c1ccccc1)n1c(=O)n2n(c1=O)[C@H]1[C@H](O)[C@@H]3O[C@@H]3C(=O)[C@H]1CC2 assigned_category=F
input_smiles=CCN1C(=O)[C@@H]2[C@H]3C(=CC[C@@H]2C1=O)C1(OCCCO1)[C@H]1O[C@H]1[C@H]3O assigned_category=T
input_smiles=COC(=O)[C@@H]1CC[C@H](C)[C@@H](c2ccc(C)cc2)N1C(=O)c1ccc(C=NO[C@H](C)c2cn([C@H](CO)Cc3ccccc3)nn2)cc1 assigned_category=F

Identify whether the reported composite z-score of the following compound is -0.002 or greater: "COC(=O)C=CCCc1coc(C=CCNC(=O)OC)n1" F

hey, is composite z-score for this one >= -0.002? "C[C@@H](ON=C1[C@H]2CCn3c(=O)n(-c4ccccc4)c(=O)n3[C@H]2[C@H](O)[C@@H]2O[C@H]12)c1cn([C@@H]2COC[C@H]2O)nn1" T

---

# Test system: XIP peptide (Xip251-270)
# procedure text: small-molecule binders of XIP peptide, primary screen, biochemical, small-molecule microarray, fluorescence 635/667 nm, 0.5 µg/mL protein (AID 1183)
# measurement setup: small-molecule microarray binding, fluorescence 635 nm; higher = more signal
Please use the following composite z-score ranges when assigning a class: low (below 0.3), moderate (0.3 to below 0.6), high (0.6 or more)

# count of solved cases: 5
compound=O=C(NN=C1C[C@@H](O)[C@@H](O)[C@@H]2[C@@H]3C(=O)N(Cc4ccccc4)C(=O)[C@@H]3CC[C@@H]12)OCc1ccccc1 system="XIP peptide (Xip251-270)" assigned_category=low
compound=CC(C)=CCCC(C)=CCON=C1C[C@@H](O)[C@@H](O)[C@@H]2[C@@H]3C(=O)N(Cc4ccccc4)C(=O)[C@@H]3CC[C@@H]12 system="XIP peptide (Xip251-270)" assigned_category=high
compound=COc1ccc(O[C@H]2C=C[C@@H](c3ccccc3)O[C@@H]2CON=C(C)CCC(=O)OC[C@H]2O[C@H](c3ccccc3)C=C[C@@H]2Oc2ccc(OC)cc2)cc1 system="XIP peptide (Xip251-270)" assigned_category=low
compound=CCN1C(=O)[C@H]2[C@H]3[C@H](O)[C@H](O)CC(=NOC[C@H]4O[C@H](c5ccccc5)C=C[C@@H]4Oc4ccc(OC)cc4)[C@@H]3CC[C@H]2C1=O system="XIP peptide (Xip251-270)" assigned_category=high
compound="CCOC(=O)[C@H](Cc1ccccc1)NC(=O)CCC1CC(OC(=O)NCCc2ccc(F)cc2)CC2(CCCC(COC(=O)NCCc3ccc(Cl)cc3)O2)O1 (stereo partly drawn)" system="XIP peptide (Xip251-270)" assigned_category=moderate

Which composite z-score category applies to "O=C1[C@H]2[C@H]3[C@H](O)[C@H](O)CC(=NO[C@@H]4O[C@H](CO)[C@@H](O)[C@H](O)[C@H]4O)[C@H]3CC[C@H]2C(=O)N1c1cccc(Oc2ccccc2)c1" here? moderate

Input "CCCNC(=O)OC[C@H]1O[C@H](CCON=Cc2ccc(C(=O)N3[C@H](c4ccc(C)cc4)[C@@H](C)CC[C@H]3C(=O)OC)cc2)C=C[C@@H]1Oc1ccc(OC)cc1" ; output its category low

In plain terms, what class is "O=C1C[C@@H](O)[C@@H](O)[C@@H]2[C@@H]3C(=O)N(Cc4ccccc4)C(=O)[C@@H]3CC[C@@H]12" ? moderate

Would you mind sorting "COC(=O)CC=C[C@@H](C)[C@@H](C=NO[C@H](C)c1cn([C@H](CO)Cc2ccccc2)nn1)NS(=O)(=O)c1ccc(C)cc1" into the appropriate category? low

Sort "CC(C)CCN1CCc2nc(COc3ccccc3)c3c(c2C1)CO[C@@H](C)C3" into one of the categories. low

GET /class?item= "CCOC(=O)CCN1C(=O)[C@H]2[C@H]3[C@H](O)[C@H](O)CC(=NNC(=O)OCc4ccccc4)[C@@H]3CC[C@H]2C1=O" high

---

# procedure text: mitochondrial membrane potential change in A549 cells, profiling panel, cell-based, JC-1 fluorescence, basal, 24 h, 100 nL (AID 1138);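 also: A549 lung adenocarcinoma cells under basal conditions with no added stimulus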
# measurement setup: higher = more signal
Parameter threshold = -0.3. Response is label 1 when z-score meets or exceeds it, else label 0.

Solved entries:
input_smiles=CC[C@@H](c1ccccc1)n1c(=O)n2n(c1=O)[C@H]1[C@H](O)[C@@H]3O[C@@H]3C(=O)[C@H]1CC2 assigned_category="label 1"
input_smiles=CO[C@H]1COC(=O)CCC[C@@H](C)[C@H](OC)COC(=O)[C@@H]2CCCN2C(=O)CC=C[C@@H]1C assigned_category="label 0"
input_smiles=O=C1C[C@@H](O)[C@@H](O)[C@@H]2[C@@H]3C(=O)N(Cc4ccc5c(c4)OCO5)C(=O)[C@@H]3CC[C@H]12 assigned_category="label 1"
input_smiles=COc1cc(O)c(C(=O)C=Cc2ccc3c(c2)OCO3)c(OC)c1 assigned_category="label 1"
input_smiles=CC(C)=CCCC(C)=CCON=C1C[C@@H](O)[C@@H](O)[C@@H]2[C@@H]3C(=O)N(C4CCCCC4)C(=O)[C@@H]3CC[C@@H]12 assigned_category="label 0"

Hi team, for "CO[C@H]1COC(=O)CC=C[C@H](C)[C@@H](OC)COC(=O)[C@@H](C)COC(=O)CC=C[C@@H]1C" , is the recorded z-score at or above -0.3? label 1

Could you tell me if the measured z-score of "CC(C)CON=C1C[C@@H](O)[C@@H](O)[C@@H]2[C@@H]3C(=O)N(c4cccc(Oc5ccccc5)c4)C(=O)[C@@H]3CC[C@@H]12" reaches -0.3 or more? label 1

---

# procedure text: small-molecule microarray binders of probe aDKK1, primary screen, biochemical, biotinylated probe, 635/667 nm fluorescence (AID 1099);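 also: score merges 667nm spot fluorescence with signal to noise across triplicate slides; reference of the scale not given here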
# measurement setup: higher = more signal
experimental readout: composite z-score
# answer = number (no unit)

Look over these answered cases.
molecule=COC(=O)[C@@H]1CC[C@H](C)[C@@H](c2ccc(C)cc2)N1C(=O)c1ccc(C=NOC[C@@H](C)[C@H](OCc2ccccc2)C(C)C)cc1 numeric_result=0.0975
molecule=CC(C)CON=C1C[C@@H](O)[C@@H](O)[C@@H]2[C@@H]3C(=O)N(C4CCCCC4)C(=O)[C@@H]3CC[C@@H]12 numeric_result=-0.22
molecule=O=C(NN=C1C[C@@H](O)[C@@H](O)[C@@H]2[C@@H]3C(=O)N(C[C@@H]4CCCO4)C(=O)[C@@H]3CC[C@H]12)OCc1ccccc1 numeric_result=0.545
molecule=O=C1C[C@@H](O)[C@@H](O)[C@@H]2[C@@H]3C(=O)N(Cc4ccccc4)C(=O)[C@@H]3CC[C@@H]12 numeric_result=-0.222
molecule="COC(=O)[C@H](C)NC(=O)CCC1CC(OC(=O)NCCc2ccc(F)cc2)CC2(CCCC(COC(=O)NCc3cccc(C(F)(F)F)c3)O2)O1 (some centres not stated)" numeric_result=-0.528

Record "O=C1[C@H]2[C@H]3[C@H](O)[C@H](O)CC(=NOC[C@@H](O)COCc4ccco4)[C@H]3CC[C@H]2C(=O)N1Cc1ccccc1" , field composite z-score: -0.49

The molecule listed as "C#CCCCON=C1C[C@@H](O)[C@@H](O)[C@@H]2[C@@H]3C(=O)N(CCC(=O)OCC)C(=O)[C@@H]3CC[C@H]12" has a reported composite z-score of 0.286

---

# Test system: Lefty1
# procedure text: Lefty1 binders on small-molecule microarrays, primary screen, biochemical, small-molecule microarray, 635/667 nm fluorescence (AID 1139)
# measurement setup: small-molecule microarray binding, fluorescence 635/667; higher = more signal
Parameter: composite z-score. Scope: all listed entries.
// no unit, no text: just the number

compound=CC(CCN1CCCCc2nc(C)c(C)cc21)=NOC[C@@H](O)COCc1ccco1 experimental_readout="composite z-score" numeric_result=1.68

Looking up COC(=O)[C@H](C)NC(=O)CCC1CC(OC(=O)NCc2cccc3ccccc23)CC2(CCCC(COC(=O)NCC(c3ccccc3)c3ccccc3)O2)O1 (some centres not stated) , I found its composite z-score recorded as 0.554

Given item CCOC(=O)[C@H](CC(C)C)NC(=O)CCC1CC(OC(=O)NCc2ccc3c(c2)OCO3)CC2(CCCC(COC(=O)NCc3cccc(C(F)(F)F)c3)O2)O1 (some centres not stated) , the value recorded as its composite z-score is 0.389
